assay.details: Pharmacokinetic evaluation in rat (clearance)
Type: in vivo
condition: male, Sprague-Dawley (SD), serum, iv, dose 16.4 mg/kg, mesylate salt, 20 min i.v. infusion, read-out: Pharmacokinetics Clearance (converted)
property.label: clearance (mL/min/kg)
Give bare numbers, in mL/min/kg.

Consider the molecule NCCSCc1ncccc1SC1=C(C(=O)O)N2C(=O)[C@@H](NC(=O)/C(=N\O)c3nsc(N)n3)[C@H]2SC1 [Cmpd 17] and give its measured clearance. 8.33

###

Tested on: rat serum proteins
assay.details: Serum binding determination by ultrafiltration/HPLC
Assay type: in vitro ADME
condition: by HPLC
Could you please report measured Serum Binding rat (% of compound bound to serum) for the items listed next?

Record excerpt, results attached:
I would be grateful if you could share the reported Serum Binding rat (% of compound bound to serum) for NCCSCc1cnccc1SC1=C(C(=O)O)N2C(=O)[C@@H](NC(=O)/C(=N\O)c3nsc(N)n3)[C@H]2SC1 [Cmpd 18] . 55%

Given the entry NCCSCc1ncsc1SC1=C(C(=O)O)N2C(=O)[C@@H](NC(=O)/C(=N\O)c3cccc(N)n3)[C@H]2SC1 [Cmpd 23] , report its measured Serum Binding rat (% of compound bound to serum). 77%

Please look up its Serum Binding rat (% of compound bound to serum): NCCSCc1ncccc1SC1=C(C(=O)O)N2C(=O)[C@@H](NC(=O)/C(=N\O)c3nc(N)sc3Cl)[C@H]2SC1 [Cmpd 13] 85%

# query: Serum Binding rat (% of compound bound to serum) of entry NCCSCc1ncccc1SC1=C(C(=O)O)N2C(=O)[C@@H](NC(=O)/C(=N\O)c3nsc(N)n3)[C@H]2SC1 [Cmpd 17] 74%

So what does the record say about Serum Binding rat (% of compound bound to serum) for NCCSCc1nc(N)sc1SC1=C(C(=O)O)N2C(=O)[C@@H](NC(=O)/C(=N\O)c3nc(N)sc3Cl)[C@H]2SC1 [Cmpd 3] ? 56%

For the molecule shown here, NCCSCc1cnccc1SC1=C(C(=O)O)N2C(=O)[C@@H](NC(=O)/C(=N\O)c3nc(N)sc3Cl)[C@H]2SC1 [Cmpd 20] , give the reported Serum Binding rat (% of compound bound to serum). 71%

For the 5 molecules below, give their Serum Binding rat (% of compound bound to serum) values.
1. N=C(N)NCCSCc1cnccc1SC1=C(C(=O)O)N2C(=O)[C@@H](NC(=O)/C(=N\O)c3nsc(N)n3)[C@H]2SC1 [Cmpd 25]
2. N=C(N)NCCSCc1ncccc1SC1=C(C(=O)O)N2C(=O)[C@@H](NC(=O)/C(=N\O)c3nc(N)sc3Cl)[C@H]2SC1 [Cmpd 15]
3. NCCSCc1cnccc1SC1=C(C(=O)O)N2C(=O)C(NC(=O)/C(=N\O)c3csc(N)n3)C2SC1 (centres unmarked) [Cmpd 19]
4. NCCSCc1cnccc1SC1=C(C(=O)O)N2C(=O)[C@@H](NC(=O)/C(=N\O)c3cccc(N)n3)[C@H]2SC1 [Cmpd 24]
5. NCCSCc1ccncc1SC1=C(C(=O)O)N2C(=O)[C@@H](NC(=O)/C(=N\O)c3nc(N)sc3Cl)[C@H]2SC1 [Cmpd 21]

35%
76%
76%
52%
97%

Value source: patent US6723716B1
